Target: T1, exemplary TAT frataxin fusion molecule (HIV-1, UniProt Q16595 1-210)
T1 construct: in the bridging assays biotinylated and sulfotagged forms were used; also called TAT-FXN fusion molecule; TAT FXN fusion molecule
T1 sequence: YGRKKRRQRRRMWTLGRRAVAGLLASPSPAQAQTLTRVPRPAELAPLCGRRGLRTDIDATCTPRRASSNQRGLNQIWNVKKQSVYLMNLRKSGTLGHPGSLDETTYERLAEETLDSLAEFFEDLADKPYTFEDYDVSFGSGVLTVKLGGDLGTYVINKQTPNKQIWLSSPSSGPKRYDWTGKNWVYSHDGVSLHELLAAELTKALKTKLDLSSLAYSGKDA
Assay: PK sandwich ELISA in human plasma, antibody as capture, HRP anti-frataxin mAb detection
metricName: Mean OD at plasma conc. 1.60 ng/mL
Please don't drop the unit; write it after the number.

Known Mean OD at plasma conc. 1.60 ng/mL results, listed for orientation:
binder	metricName	valueObserved
antibody 12-8 (antibody, V domains shown, Rabbit monoclonal) VH: QSLEESGGDLVKPGASLTLTCTASGFSFSSGYWICWVRQAPGKGLEWIACIYTGDGDTSYASWAKGRFTISKTSSTTVTLQMTSLTVADTAIYFCARDTSGTFYYNLWGPGTLVAVSS VL: AAVLTQTPSSVSAAVGGTVTISCQSSESVYKTNYLSWFQKKPGQPPKLLIYDASTLASGVPSRFSGSGSGTQFTLTISDLECDDAATYYCAGGYSDDINAFGGGTEVEIK	Mean OD at plasma conc. 1.60 ng/mL	0.129 OD
antibody 10-5 (antibody, V domains shown, Rabbit monoclonal) VH: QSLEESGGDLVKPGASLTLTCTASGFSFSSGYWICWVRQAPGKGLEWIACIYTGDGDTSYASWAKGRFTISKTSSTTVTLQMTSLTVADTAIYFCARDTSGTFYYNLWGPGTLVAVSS VL: DVVMTQTPSPVSAPVGGTVTINCQASQNIYSNLAWYQQKPGQPPKLLIYGASTLASGVSSRFKGSRSGTEFTLTISDLECADAATYYCQSYVYSSSTADTFGGGTKVVVE	Mean OD at plasma conc. 1.60 ng/mL	0.135 OD
antibody 10-12 (antibody, V domains shown, Rabbit monoclonal) VH: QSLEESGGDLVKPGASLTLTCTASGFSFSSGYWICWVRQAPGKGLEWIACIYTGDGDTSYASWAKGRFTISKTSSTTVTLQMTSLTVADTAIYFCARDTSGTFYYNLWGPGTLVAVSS VL: ELVLTQTASSVSAAVGGTVTISCQSSESVYKTNYLSWFQKKPGQPPKLLIYDASTLASGVPSRFSGSGSGTQFTLTISDLECDDAATYYCAGGYSDDINAFGGGTEVVVK	Mean OD at plasma conc. 1.60 ng/mL	0.136 OD

Entry under review: antibody 10-1 (antibody, V domains shown, Rabbit monoclonal) VH: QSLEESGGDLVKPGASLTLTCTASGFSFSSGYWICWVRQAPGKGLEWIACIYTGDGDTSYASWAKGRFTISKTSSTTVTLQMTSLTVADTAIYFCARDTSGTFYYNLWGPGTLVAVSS VL: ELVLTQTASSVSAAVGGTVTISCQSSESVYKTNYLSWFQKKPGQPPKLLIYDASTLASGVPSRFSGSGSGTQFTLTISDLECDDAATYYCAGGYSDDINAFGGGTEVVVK . Reported Mean OD at plasma conc. 1.60 ng/mL?
0.14 OD

Entry under review: antibody 10-9 (antibody, V domains shown, Rabbit monoclonal) VH: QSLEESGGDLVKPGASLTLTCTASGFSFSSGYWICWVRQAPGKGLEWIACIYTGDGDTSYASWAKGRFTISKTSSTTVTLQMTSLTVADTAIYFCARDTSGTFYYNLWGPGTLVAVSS VL: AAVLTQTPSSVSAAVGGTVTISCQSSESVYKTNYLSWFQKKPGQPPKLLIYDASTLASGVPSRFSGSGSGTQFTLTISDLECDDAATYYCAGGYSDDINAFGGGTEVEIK . Reported Mean OD at plasma conc. 1.60 ng/mL?
0.14 OD
